biological target: T1, Goat anti-Human Kappa; assay: ELISA; positive control; further: test concentration or dose not given here
T1 construct: Positive control; also called biotinylated goat anti-human kappa light chain
assay metric: optical density (OD)
Your answer is read as OD, so omit the unit and give the number.

Sample answers from the record:
binder | quantitative readout
367_B06 (antibody, V domains shown, VH/VL only) VH: EVQLLESGGGLVQPGGSLRLSCAASGFTFSSYSMNWVRQAPGKGLEWVANINYNGGYTGYADSVKGRFTISRDNSKNTLYLQMNSLRAEDTAVYYCARGATWHDTHLDYWGQGTLVTVSS VL: DIQMTQSPSSLSASVGDRVTITCRASQSIISYVNWYQQKPGKAPKLVIYAATSLHSGVPSRFSGSGSGTDFTLTISSLQPEDFATYYCQQSYNSPLTFGGGTKVEIK | 3.02
375_H08 (antibody, V domains shown, VH/VL only) VH: EVQLLESGGGLVQPGGSLRLSCAASGFTFSSYSMNWVRQAPGKGLEWVSGINYNGGYTSYADSVKGRFTISRDNSKNTLYLQMNSLRAEDTAVYYCARGATWHDTHLDYWGQGTLVTVSS VL: DIQMTQSPSSLSASVGDRVTITCRASQSILTYLNWYQQKPGKAPKLLIYAATSLASGVPSRFSGSGSGTDFTLTISSLQPEDFATYYCQQSYDSPLTFGGGTKVEIK | 3.32

Could you now look at the following binder, please?
Task item: # query: optical density of entry 370_C07 (antibody, V domains shown, VH/VL only) VH: EVQLLESGGGLVQPGGSLRLSCAASGFTFSSYSMNWVRQAPGKGLEWVANINYNGGYKSYADSVKGRFTISRDNSKNTLYLQMNSLRAEDTAVYYCARGATWHDTHLDYWGQGTLVTVSS VL: DIQMTQSPSSLSASVGDRVTITCRASQSILSYLNWYQQKPGKAPKLLIYAATSRHSGVPSRFSGSGSGTDFTLTISSLQPEDFATYYCQQSYESPLTFGGGTKVEIK
Reply: 3.3
